- system-tested: T1, human CD22-ECD-His protein (human, UniProt P20273 20-687)
- T1 construct: Made in house in HEK293E; also called hCD22-ECD-His; recombinant human CD22-ECD His protein; not shown: His tag
- T1 sequence: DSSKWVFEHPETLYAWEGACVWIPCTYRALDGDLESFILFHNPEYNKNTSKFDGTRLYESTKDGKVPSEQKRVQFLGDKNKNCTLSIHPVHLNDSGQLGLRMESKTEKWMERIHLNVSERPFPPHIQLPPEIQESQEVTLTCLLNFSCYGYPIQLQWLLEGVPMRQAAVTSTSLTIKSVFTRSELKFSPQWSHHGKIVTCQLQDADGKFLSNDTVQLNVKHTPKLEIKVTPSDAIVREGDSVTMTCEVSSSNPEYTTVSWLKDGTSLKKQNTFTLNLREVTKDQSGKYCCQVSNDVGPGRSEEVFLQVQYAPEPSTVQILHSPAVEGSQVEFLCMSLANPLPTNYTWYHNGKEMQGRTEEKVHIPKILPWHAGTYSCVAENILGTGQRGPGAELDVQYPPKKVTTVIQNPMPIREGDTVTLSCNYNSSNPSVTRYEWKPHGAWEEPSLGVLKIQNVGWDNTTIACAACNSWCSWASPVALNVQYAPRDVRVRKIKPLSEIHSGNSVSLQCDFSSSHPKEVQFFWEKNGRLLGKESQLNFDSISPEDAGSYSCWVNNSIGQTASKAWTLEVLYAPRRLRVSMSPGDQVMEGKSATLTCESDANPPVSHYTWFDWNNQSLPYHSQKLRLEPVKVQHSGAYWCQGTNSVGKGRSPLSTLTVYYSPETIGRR
- assay-summary: ELISA, Ab 0.0001 nM
observed-property: OD450
Please answer in the form of a number followed by its unit of measurement.

INSERT INTO assay_data (binder, observed_property, result) VALUES
  ('F2.55.1 (antibody, human IgG1, lambda, V domains shown, Human-murine chimeric IgG1, lambda) VH: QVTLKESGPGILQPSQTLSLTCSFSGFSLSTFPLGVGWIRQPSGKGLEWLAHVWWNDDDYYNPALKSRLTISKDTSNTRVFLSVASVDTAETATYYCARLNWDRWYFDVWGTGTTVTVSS VL: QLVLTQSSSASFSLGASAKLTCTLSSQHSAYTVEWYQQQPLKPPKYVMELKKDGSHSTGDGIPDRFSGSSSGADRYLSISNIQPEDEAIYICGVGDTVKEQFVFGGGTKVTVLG', 'OD450', '0.23 OD450'),
  ('F1.105.11 (antibody, human IgG1, kappa, V domains shown, Human-murine chimeric IgG1, kappa) VH: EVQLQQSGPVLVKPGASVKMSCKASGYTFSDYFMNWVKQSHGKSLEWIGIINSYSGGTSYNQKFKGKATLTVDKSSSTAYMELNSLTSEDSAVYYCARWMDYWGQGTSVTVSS VL: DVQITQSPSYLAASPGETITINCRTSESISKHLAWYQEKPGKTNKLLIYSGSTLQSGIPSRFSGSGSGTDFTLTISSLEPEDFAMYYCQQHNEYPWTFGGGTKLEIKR', 'OD450', '0.14 OD450');

Below: the item to evaluate.
Q. Assign OD450 to the following record: F2.104.10 (antibody, human IgG1, lambda, V domains shown, Human-murine chimeric IgG1, lambda) VH: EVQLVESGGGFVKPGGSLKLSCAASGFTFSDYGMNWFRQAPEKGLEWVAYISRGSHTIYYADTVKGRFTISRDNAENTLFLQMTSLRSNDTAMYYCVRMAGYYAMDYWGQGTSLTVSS VL: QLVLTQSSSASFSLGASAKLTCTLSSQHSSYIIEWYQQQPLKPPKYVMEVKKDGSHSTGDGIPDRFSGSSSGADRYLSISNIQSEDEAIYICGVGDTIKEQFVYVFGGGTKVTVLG
A. 0.32 OD450
